test.target: T1, cyno PD-L1 (cyno)
T1 construct: Soluble analyte in BLI
protocol.description: BLI (Octet), antibody on AHC biosensor, cyno PD-L1 as analyte
pKd: −log10 of the molar value.
Quick reference: pKd of the listed items.
measure.name: pKd

[
  {
    "binder": "antibody A14 (antibody, V domains shown, Tested as full-length mAb made in CHO cells; also called L14H14) VH: QVQLVESGGGVVQPGRSLRLSCAASGFTFSSYGMHWVRQAPGKGLEWVAVIWYDGSVKYYADSVKGRFTISRDNSKNTLYLQMNSLRAEDTAVYYCARDRTGVPFDYWGQGTLVTVSS VL: EIVMTQSPATLSLSPGERATLSCRASQSVSSSYLSWYQQKPGQAPRLLIYGASTRATGIPARFSGSGSGTDFTLTISSLQPEDFAVYYCQQDYNLPHTFGQGTKLEIK",
    "observed.result": 7.24
  },
  {
    "binder": "antibody A11 (antibody, V domains shown, Tested as full-length mAb made in CHO cells; also called L11H11) VH: QVQLVESGGGVVQPGRSLRLSCAASGFTFSSYGIHWVRQAPGKGLEWVAVIWSDGSNKFYADSVKGRFTISRDNSKNTLFLQMSSLRAEDTAVYYCARDIAAAIDYWGQGTLVTVSS VL: AIQMTQSPSSLSASVGDRVTITCRASQGIRNDLGWYQQKPGKAPKLLIYAASSLQSGVPSRFSGSGSGTDFTLTISSLQPEDFATYYCLQDYNYPYTFGQGTKLEIK",
    "observed.result": 7.75
  },
  {
    "binder": "antibody A12 (antibody, V domains shown, Tested as full-length mAb made in CHO cells; also called L12H12) VH: QVQLVESGGGVVQPGRSLRLSCAASGFTFSSYGMHWVRQAPGKGLEWVAVIWYDGSNKSYADSVKGRFTFSRDNSKNTLYLQMNSLRAEDTAVYYCARDMDYFGLDVWGQGTTVTVSS VL: DIQMTQSPSSLSASVGDRVTITCRASQGIRNDLGWYQQKPGKAPKRLIYAASSLQSGVPSRFSGSGSGTEFTLTISSLQPEDFATYYCLQHNSYPRTFGQGTKVEIK",
    "observed.result": 7.12
  },
  {
    "binder": "antibody A3 (antibody, V domains shown, Tested as full-length mAb made in CHO cells; also called L3H3) VL: AIQMTQSPSSLSASVGDRVTITCRASQDIRNDLGWYQQQPGKAPKLLIYAASSLQSGVPSRFSGSGSGTDFTLTISSLQPEDFATYYCLQDYNYPPTFGQGTKVEIK V domain: QVQLVESGGGVVQPGRSLRLSCAASGFTFSNYGMHWVRQAPGKGLEWVAVIWFDGNTKYYTDSVKGRFTISRDNSKNTLYLQMNSLRAEDTAVYYCARDTTMVPMDVWGQGTTATVSS",
    "observed.result": 8.08
  },
  {
    "binder": "antibody A2 (antibody, V domains shown, Tested as full-length mAb made in CHO cells; also called L2H2) VH: EVQLVESGGGLVQPGGSLRLSCAASGFTFSRYDMSWVRQAPGKGLEWVSTISGSGGSTYYADSVKGRFTISRDNSKTTLYLQMISLRAEDTAVYYCAKAGFTMIVVAFDYWGQGTLVTVSS VL: DIQMTQSPSSLSASVGDRVTITCRASQGISNYLAWFQQKPGKAPKSLIYAASSLQSGVPSKFSGSGSGTDFTLTISSLQPEDFATYYCQQYNSYPYTFGQGTKLEIK",
    "observed.result": 8.28
  }
]
